For each of the compounds below, state its GI50.
- Test system: NCI/ADR-RES
- Protocol Details: NCI tumour cell line growth inhibition, 48 h
Active and inactive are the calls of the source. Cut-off read from the data, not from the text of the source: active = GI50 up to about 1.1 µM and inactive = higher. Where a SMILES comes first, the peptide text is derived from it. The star is where a group is joined. Boc = CC(C)(C)OC(=O)*

Data request: What value of GI50 has been reported for the following compound? CC1(C)C2CCC(=O)C1CC2 (stereo unspecified)
Data returned: > 100 µM (inactive)

Data request: What value of GI50 has been reported for the following compound? CC(=O)c1cc(CC2Cc3cc4c(cc3C2=O)CCC4)cc2c1CCC2 (stereo unspecified)
Data returned: 26.2 µM (inactive)

Data request: What value of GI50 has been reported for the following compound? "Oc1ccc(CCNCc2cc3c(cc2Br)OCO3)cc1"
Data returned: 47.5 µM (inactive)

Data request: What value of GI50 has been reported for the following compound? O=C(CC(C(=O)c1cccs1)c1ccsc1)c1ccc(Cl)s1 (stereo unspecified)
Data returned: 12.1 µM (inactive)

Data request: What value of GI50 has been reported for the following compound? "CCCCCCCCCC(=O)NCCc1c[nH]c2ccc(OC)cc12"
Data returned: 19.2 µM (inactive)

Data request: What value of GI50 has been reported for the following compound? "CN(C)c1ccc(/C=C2\C[C@H]3[C@@H]4CC=C5C[C@@H](N6CCCC6)CC[C@]5(C)[C@H]4CC[C@]3(C)[C@H]2O)cc1"
Data returned: 1.62 µM (inactive)

Data request: What value of GI50 has been reported for the following compound? "CC(C)c1nc(Cl)c(Cl)c(Cl)n1"
Data returned: 5.78 µM (inactive)

Data request: What value of GI50 has been reported for the following compound? "O=c1oc2ccccc2c2nc3ccccc3cc12"
Data returned: 97.7 µM (inactive)

Data request: What value of GI50 has been reported for the following compound? "C(=N\N=C1NCCCN1)/c1ccc2ccccc2c1"
Data returned: 19.4 µM (inactive)

Data request: What value of GI50 has been reported for the following compound? CNC(=O)CNC(=O)C(NC(=O)CNC(=O)C1CCCN1C(=O)C(C)NC(=O)C(NC(=O)OC(C)(C)C)C(C)C)C(C)C (stereo unspecified) (Boc-VAPGVG-NHMe; configuration not given here)
Data returned: > 100 µM (inactive)

Data request: What value of GI50 has been reported for the following compound? "C=C(C)C(=O)[C@@]12C(=O)[C@@H](C)CC[C@H]1[C@H](C)C[C@@H]2C=C(C)C"
Data returned: 27.8 µM (inactive)

Data request: What value of GI50 has been reported for the following compound? CC(C)=CC[C@H]1C[C@]2(CC=C(C)C)C(=O)[C@@](CC=C(C)C)(C(=O)C(C(=O)c3ccccc3)=C2O)C1(C)C [6-EPI-CLUSIANONE]
Data returned: 5.33 µM (inactive)

Data request: What value of GI50 has been reported for the following compound? "CC1(C)CS(=O)(=O)CC(C)(C)C(=N/N)/C1=N\N"
Data returned: > 100 µM (inactive)

Data request: What value of GI50 has been reported for the following compound? "O=C1C([N-]S(=O)(=O)c2ccccc2)=C([n+]2ccc(Cc3ccccc3)cc2)C(=O)c2ccccc21"
Data returned: 2.83 µM (inactive)

Data request: What value of GI50 has been reported for the following compound? "CCOC(=O)c1ccc(C(=O)/C(C(C)=O)=C2\CCCN2C)n1C"
Data returned: 83.8 µM (inactive)

Data request: What value of GI50 has been reported for the following compound? "Cc1ccc(N2C=Nn3c(nc4sc5c(c4c3=O)CCCC5)C2)cc1"
Data returned: 70.3 µM (inactive)
